Target: cyno IL-17A (cynomolgus monkey, UniProt A0A2K5TTB0 24-155)
Sequence (A0A2K5TTB0 entry or part of it): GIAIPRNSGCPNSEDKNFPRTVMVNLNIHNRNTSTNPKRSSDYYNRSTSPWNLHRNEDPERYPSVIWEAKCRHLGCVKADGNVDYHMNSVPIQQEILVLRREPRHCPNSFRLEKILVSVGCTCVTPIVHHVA
Test: SPR Biacore, captured binder
pKd: −log10 of the molar value.
Quick rule for you: pKd at 10 or higher means criterion met, lower means criterion not met.

IL17-G9-4 (antibody, V domains shown, converted into IgG) VH: EVQLLESGGGVVQPGRSLRLSCAASGFIFSNYGMHWVRQAPGKGLEWVAVISYDGSNKYYADSVKGRFTISRDNSKNTLYLEMNSLRPEDTAVYYCAKVGASGDYYYSYGLDVWGQGTTVTVSS VL: QSVLTQPPSASGTPGQTVSISCSGRQSNIGRHYVDWYQQVPGAAPKLLMYYDSIRPSGVPDRFSGSQSGTSASLAISGLQSEDEADYYCATWDDSLGGYVFGSGTKVTVLG | criterion met
IL17-G9-1 (antibody, V domains shown) VH: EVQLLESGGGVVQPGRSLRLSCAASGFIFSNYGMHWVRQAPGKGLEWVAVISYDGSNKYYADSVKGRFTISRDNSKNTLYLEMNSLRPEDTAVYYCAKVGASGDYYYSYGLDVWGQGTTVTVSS VL: QSVLTQPPSASGTPGQTVSISCSGSHSNIGRHPVDWYQQVPGAAPKLLMYYGGYRPSGVPDRFSGSQSGTSASLAISGLQSEDEADYYCATWDDRLVGYVFGSGTKVTVLG | criterion met

For the next question, use this binder.
stdin: Has IL17-G9-M1 (antibody, V domains shown) VH: EVQLLESGGGVVQPGRSLRLSCAASGFIFSNYGMHWVRQAPGKGLEWVAVISYDGGYKYYADSVKGRFTISRDNSKNTLYLEMNSLRPEDTAVYYCAKLSLSGDYYYSYGFDGWGQGTTVTVSS VL: QSVLTQPPSASGTPGQTVSISCSGSKSNIGSHYVHWYQQVPGAAPKLLMYDFGQRPSGVPDRFSGSQSGTSASLAISGLQSEDEADYYCGTWDDWLGGYVFGTGTKVTVLG a recorded pKd greater than or equal to 10?
stdout: criterion met

Cited source for all entries: patent US20140348834A1
